# Experimental Protocol: Determination of particle size and polydispersity index (PDI) of lipid nanoparticles by dynamic light scattering
# Assay type: physicochemical
# Protocol Conditions: LNP formulation of named cationic lipid/DSPC/cholesterol/DMG-PEG2000 49:10:39.5:1.5; 90° scattering angle, 25° C
Decide by Particle size (nm): equal to or exceeding 200 nm means yes, less means no.

Compound	Class
CCCCCCCCCCOC(=O)CCCN(CCCCCC(=O)OCCC(CCCCCC)CCCCCC)CCOC(=O)CCCN(C)C	yes

Q: Dear colleague, could you confirm whether CCCCCCCCC(CCCCCC)C(=O)OCCCCCCN(CCCCO)CCCCCCOC(=O)C(CCCCCC)CCCCCCCC (stereo not shown) [ALC-0315, reference compound] has Particle size (nm) at or above 200 nm?
Result: yes

Q: Check the entry CCCCCCCCCCOC(=O)CCCN(CCCCCC(=O)OCCC(CCCCCC)CCCCCC)C[C@@H](O)CO : does Particle size (nm) equal or exceed 200 nm?
Result: no

Q: Check the entry CCCCCCCCCCCOC(=O)CCCCCN(CCO)CCCCCCCC(=O)OC(CCCCCCCC)CCCCCCCC [SM-102, reference compound] : does Particle size (nm) equal or exceed 200 nm?
Result: no

Q: Entry CCCCCCCCCCOC(=O)CCCN(CCCCCC(=O)OCC(CCCCCCCC)CCCCCCCC)CCOC(=O)CCCN(C)C : is its Particle size (nm) no less than 200 nm?
Result: yes

---

# Tested on: 293T cells
# Experimental Protocol: Fluorescent detection of Fluc-mRNA (cell transfection efficiency of LNP formulations)
# Format: cell-based
# Protocol Conditions: RLU of named substance / RLU of HHMA
Quantity Name: fluorescence absorption value, times that of HHMA (times)
Please respond with the number in times and leave the unit unwritten.

Solved cases below.
Compound	Result Value
CCCCCCCCCCOC(=O)CCCN(CCCCCC(=O)OCCC(CCCCCC)CCCCCC)CCOC(=O)CCCN(C)C [YK-125]	0.08
CCCCCCCCCCOC(=O)CCCN(CCCCCC(=O)OCCC(CCCCCC)CCCCCC)CC(O)CO (centres unmarked) [YK-114]	0.69
CCCCCCCCCCOC(=O)CCCN(CCCCCC(=O)OCCC(CCCCCC)CCCCCC)CCOCCO [YK-123]	0.39

# next compound below
fluorescence absorption value, times that of HHMA in this record for CCCCCCCCCCOC(=O)CCCN(CCCCCC(=O)OCCC(CCCCCC)CCCCCC)CCC(C)(C)O [YK-119] : 0.0042

---

# Experimental Protocol: Determination of particle size and polydispersity index (PDI) of lipid nanoparticles by dynamic light scattering
# Format: physicochemical
# Protocol Conditions: LNP formulation of named cationic lipid/DSPC/cholesterol/DMG-PEG2000 49:10:39.5:1.5; 90° scattering angle, 25° C
Quantity Name: Particle size (nm)
The answer should read as a number with its unit following.

Example results:
Compound	Particle size (nm)
CCCCCCCCC(CCCCCCCC)OC(=O)CCCCCCCN(CCO)CCCCCCCC(=O)OCCC(CCCCCC)CCCCCC [Compound 21, reference compound]	151 nm
CCCCCCCCCCOC(=O)CCCN(CCCCCC(=O)OCCC(CCCCCC)CCCCCC)CCOCCO [YK-123]	246 nm

Let us examine a further case.
Form: compound = CCCCCCCCCCOC(=O)CCCN(CCCCCC(=O)OCC(CCCCCCCC)CCCCCCCC)CCOCCOCCO [YK-122] ; Particle size (nm) = 205 nm

---

# Test system: 293T cells
# Experimental Protocol: Fluorescent detection of Fluc-mRNA (cell transfection efficiency of LNP formulations)
# Assay type: cell-based
# Protocol Conditions: RLU of named substance / RLU of compound 21
Quantity Name: Fluc-mRNA expression signal intensity, times that of compound 21 (times)
State just the number; it will be interpreted in times.

// Fluc-mRNA expression signal intensity, times that of compound 21 value for CCCCCCCCCCOC(=O)CCCN(CCCCCC(=O)OCC(CCCCCCCC)CCCCCCCC)CCOC(=O)CCCN(C)C : 0.16

Reported Fluc-mRNA expression signal intensity, times that of compound 21 for CCCCCCCCCCOC(=O)CCCN(CCCCCC(=O)OCCC(CCCCCC)CCCCCC)C[C@H](C)O was 0.50

Per the records, this molecule ( CCCCCCCCCCOC(=O)CCCN(CCCCCC(=O)OCCC(CCCCCC)CCCCCC)C[C@H](O)CO ) has Fluc-mRNA expression signal intensity, times that of compound 21 equal to 0.95

So, CCCCCCC(CCCCCC)CCOC(=O)CCCCCN(CCO)CCCCCC(=O)OCCSCCCC ? Its Fluc-mRNA expression signal intensity, times that of compound 21 was 0.0014

Noted for CCCCCCCCCCOC(=O)CCCN(CCCCCC(=O)OCCC(CCCCCC)CCCCCC)CCOCCO : its Fluc-mRNA expression signal intensity, times that of compound 21 reads 0.58

Lab note: CCCCCCCCC(CCCCCCCC)COC(=O)CCCCCN(CCO)CCCCCC(=O)OCCSCCCC gave Fluc-mRNA expression signal intensity, times that of compound 21 of 0.11

---

# Experimental Protocol: Determination of particle size and polydispersity index (PDI) of lipid nanoparticles by dynamic light scattering
# Type: physicochemical
# Protocol Conditions: LNP formulation of named cationic lipid/DSPC/cholesterol/DMG-PEG2000 49:10:39.5:1.5
Criterion: PDI(%) strictly under 20%. Met: Met. Not met: Not met.

Past entries and their recorded results:
Compound	Class
CCCCCCCCC(CCCCCCCC)OC(=O)CCCCCCCN(CCO)CCCCCCCC(=O)OCCC(CCCCCC)CCCCCC [Compound 21, reference compound]	Met
CCCCCCCCCCOC(=O)CCCN(CCCCCC(=O)OCCC(CCCCCC)CCCCCC)CCOC(=O)CCCN(C)C [YK-125]	Not met
CCCCCCCCCCOC(=O)CCCN(CCO)CCCCCC(=O)OCC(CCCCCCCC)CCCCCCCC [YK-009, reference compound]	Met

Q: Lab note: confirm whether the reported PDI(%) for this compound is below 20%, equality not counting. compound: CCCCCCCCCCOC(=O)CCCN(CCCCCC(=O)OCC(CCCCCCCC)CCCCCCCC)CCOCCOCCO [YK-122]
Result: Met

Q: Quick check: PDI(%) of CCCCCCCCCCOC(=O)CCCN(CCCCCC(=O)OCC(CCCCCCCC)CCCCCCCC)CCOCCO [YK-124] under 20%?
Result: Met

Q: Bench note: check whether CCCCCCCCCCOC(=O)CCCCCN(CCO)CCCCCC(=O)OCCC(CCCCCC)CCCCCC [YK-103] shows PDI(%) below 20%
Result: Not met

Q: Field: below-cutoff. Rule: recorded PDI(%) strictly less than 20%. Subject: CCCCCCCCCCOC(=O)CCCN(CCCCCC(=O)OCCC(CCCCCC)CCCCCC)CCOCCO [YK-123]
Result: Met

---

Attribute: average radiation intensity of YK-108, times that of named substance
# System: BALB/C mice
# Experimental Protocol: In vivo imaging of Fluc-mRNA expression in mice delivered by LNP formulations
# Protocol Conditions: 24 h
Provide only the numeric value, understood in times.

# count of solved cases: 6
Compound	Assayed Target	Result Value
CCCCCCCCCCOC(=O)CCCN(CCO)CCCCC(=O)OCCC(CCCCCC)CCCCCC	BALB/C mice	12.3
CCCCCCCCCCOC(=O)CCCN(CCCO)CCCCCC(=O)OCCC(CCCCCC)CCCCCC	BALB/C mice	14.0
CCCCCCCCCC(=O)OCCCCN(CCO)CCCCCC(=O)OCCC(CCCCCC)CCCCCC	BALB/C mice	14.8
CCCCCCC(CCCCCC)CCOC(=O)CCCCCCCN(CCO)CCCCCCCC(=O)OCCC(CCCCCC)CCCCCC [Compound 23, reference compound]	BALB/C mice	12.5
CCCCCCCCC(CCCCCC)C(=O)OCCCCCCN(CCCCO)CCCCCCOC(=O)C(CCCCCC)CCCCCCCC (stereo not shown) [ALC-0315, reference compound]	BALB/C mice	7.8
CCCCCCCCCCOC(=O)CCCN(CCCCCC(=O)OCC(CCCCCCCC)CCCCCCCC)CCOC(=O)CCCN(C)C	BALB/C mice	67.1

What the record says about CCCCCCCCCCOC(=O)CCCN(CCCCCC(=O)OCCC(CCCCCC)CCCCCC)CC(O)CO (stereo not shown) : average radiation intensity of YK-108, times that of named substance is 15.0

---

# Tested on: 293T cells
# Experimental Protocol: Cell survival rate determination (CCK-8)
# Type: cell-based
# Protocol Conditions: cell survival rate of YK-108 minus that of named substance
Quantity Name: cell survival rate lower than that of YK-108 (%)
Answer in %, number only, no unit symbol.

Compound	Assayed Target	Result Value
CCCCCCCCCCOC(=O)CCCN(CCCCCC(=O)OCCC(CCCCCC)CCCCCC)CCC(C)O (centres unmarked) [YK-118]	293T cells	26.53
CCCCCCCCC(CCCCCCCC)OC(=O)CCCCCCCN(CCO)CCCCCCCC(=O)OCCC(CCCCCC)CCCCCC [Compound 21, reference compound]	293T cells	21.33

So for CCCCCCCCCCOC(=O)CCCN(CCCCCC(=O)OCC(CCCCCCCC)CCCCCCCC)CCOCCOCCO [YK-122] , the logged cell survival rate lower than that of YK-108 turned out to be 10.71
